TARGET_DESC: human LPA1 (Homo sapiens)
Construct: expressed in transfected cells; host or cells: Chinese hamster ovary (CHO) cells
PROTOCOL: LPA1 functional antagonist assay (calcium flux)
Assay type: cell-based
STATED_CONDITIONS: read-out: hLPA1 IC50
# IC50 per record follows
PARAMETER: IC50 (µM)

- MOLECULE: "Cc1noc(-c2ccc(O[C@@H]3CCC[C@@H](C(=O)O)C3)cc2)c1CNC(=O)OCC(C)(C)C (racemic)"
  PARAMETER: "IC50"
  TEST_VALUE: 0.334
- MOLECULE: "CCCCCCOC(=O)NCc1c(C)noc1-c1ccc(O[C@H]2CCC[C@H](C(=O)O)C2)cn1"
  PARAMETER: "IC50"
  TEST_VALUE: 0.046
- MOLECULE: "COCCOC(=O)NCc1c(C)noc1-c1ccc(O[C@H]2CCC[C@H](C(=O)O)C2)c(C)n1"
  PARAMETER: "IC50"
  TEST_VALUE: 0.275

* * *

TARGET_DESC: human LPA1 (Homo sapiens)
Construct: expressed in transfected cells; host or cells: Chinese hamster ovary (CHO) cells
PROTOCOL: LPA1 functional antagonist assay (calcium flux)
Assay type: cell-based
STATED_CONDITIONS: read-out: hLPA1 IC50
Experimental: The effectiveness of compounds of the present invention as LPA1 inhibitors can be determined in an LPA1 functional antagonist assay as follows: Chinese hamster ovary cells overexpressing human LPA1 were plated overnight (15,000 cells/well) in poly-D-lysine coated 384-well microplates (Greiner bio-one, Cat #781946) in DMEM/F12 medium (Gibco, Cat #11039). […] IC50 values were determined by fitting data to a 4-parameter logistic equation (GraphPad Prism, San Diego Calif.).
# IC50 per record follows

- COMPOUND: "Cc1nc(-c2onc(C)c2CNC(=O)OCc2ccccc2)ccc1O[C@H]1CCC[C@H](C(=O)O)C1 [Example 48]"
  IC50 / nM: 5
- COMPOUND: "Cc1noc(-c2ccc(O[C@H]3CCC[C@H](C(=O)O)C3)cn2)c1CNC(=O)OC1CCCC1 [Example 38]"
  IC50 / nM: 63
- COMPOUND: "Cc1noc(-c2ccc(O[C@H]3CCC[C@H](C(=O)O)C3)cn2)c1CNC(=O)OCC1CC1(C)C (some centres unmarked) [Example 63]"
  IC50 / nM: 16
- COMPOUND: "Cc1noc(-c2ccc(O[C@H]3CCC[C@H](C(=O)O)C3)cn2)c1CN(C)C(=O)OCc1ccccc1 [Example 64]"
  IC50 / nM: 14
- COMPOUND: "CCCCOC(=O)NCc1c(C)noc1-c1ccc(O[C@@H]2CCC[C@@H](C(=O)O)C2)cc1 (racemic) [Example 23]"
  IC50 / nM: 319
- COMPOUND: "Cc1noc(-c2ccc(O[C@H]3CCC[C@H](C(=O)O)C3)cn2)c1CNC(=O)NCc1ccccc1 [Example 35]"
  IC50 / nM: 229
- COMPOUND: "Cc1noc(-c2ccc(O[C@@H]3CCC[C@@H](C(=O)O)C3)cc2)c1CNC(=O)OC(C)C1CC1 (mixture of isomers) [Example 27]"
  IC50 / nM: 1140
- COMPOUND: "Cc1noc(-c2ccc(O[C@H]3CCC[C@H](C(=O)O)C3)cn2)c1CNC(=O)OCC1CC(C)(C)C1 [Example 8]"
  IC50 / nM: 5.5
- COMPOUND: "Cc1noc(-c2ccc(O[C@H]3CCC[C@H](C(=O)O)C3)cc2)c1CNC(=O)OCc1cccc(Cl)c1 [Example 11]"
  IC50 / nM: 197
- COMPOUND: "CCCOC(=O)NCc1c(C)noc1-c1ccc(O[C@H]2CCC[C@H](C(=O)O)C2)c(C)n1 [Example 41]"
  IC50 / nM: 20
- COMPOUND: "Cc1noc(-c2ccc(O[C@@H]3CCC[C@@H](C(=O)O)C3)cc2)c1CNC(=O)O[C@@H](C)c1ccccc1 (mixture of isomers) [Example 16]"
  IC50 / nM: 1610
- COMPOUND: "Cc1nc(-c2onc(C)c2CNC(=O)OC(C)C)ccc1O[C@H]1CCC[C@H](C(=O)O)C1 [Example 47]"
  IC50 / nM: 30
- COMPOUND: "Cc1noc(-c2ccc(O[C@@H]3CCC[C@@H](C(=O)O)C3)cc2)c1CNC(=O)OCc1ccccc1Cl [Example 20]"
  IC50 / nM: 244
- COMPOUND: "CCC[C@@H](C)OC(=O)NCc1c(C)noc1-c1ccc(O[C@H]2CCC[C@H](C(=O)O)C2)cn1 [Example 58]"
  IC50 / nM: 37
- COMPOUND: "Cc1noc(-c2ccc(O[C@@H]3CCC[C@@H](C(=O)O)C3)cc2)c1CNC(=O)OCCC(C)C (racemic) [Example 24]"
  IC50 / nM: 63
- COMPOUND: "Cc1noc(-c2cnc(O[C@H]3CCC[C@H](C(=O)O)C3)cn2)c1CNC(=O)OCc1ccccc1 (racemic) [Example 52]"
  IC50 / nM: 111
- COMPOUND: "Cc1cccc(COC(=O)NCc2c(C)noc2-c2ccc(O[C@H]3CCC[C@H](C(=O)O)C3)cn2)c1 [Example 5]"
  IC50 / nM: 25
- COMPOUND: "Cc1noc(-c2ccc(O[C@H]3CCC[C@H](C(=O)O)C3)cn2)c1CNC(=O)OCc1cccc(Cl)c1 [Example 4]"
  IC50 / nM: 30
- COMPOUND: "Cc1noc(-c2ccc(O[C@@H]3CCC[C@@H](C(=O)O)C3)cc2)c1CNC(=O)OCc1ccccc1F [Example 19]"
  IC50 / nM: 152
- COMPOUND: "Cc1noc(-c2ccc(O[C@@H]3CCC[C@@H](C(=O)O)C3)cc2)c1CNC(=O)OCc1cccc(F)c1 (racemic) [Example 21]"
  IC50 / nM: 257
- COMPOUND: "Cc1noc(-c2ccc(O[C@H]3CCC[C@H](C(=O)O)C3)cn2)c1NC(=O)O[C@H](C)C1CC1 [Example 34]"
  IC50 / nM: 30
- COMPOUND: "Cc1noc(-c2ccc(O[C@@H]3CCC[C@@H](C(=O)O)C3)cc2)c1CNC(=O)O[C@H](C)c1ccccc1 (mixture of isomers) [Example 17]"
  IC50 / nM: 293
- COMPOUND: "Cc1nc(-c2onc(C)c2CNC(=O)OC(C)(C)C)ccc1O[C@H]1CCC[C@H](C(=O)O)C1 [Example 50]"
  IC50 / nM: 44
- COMPOUND: "CCCCOC(=O)N(C)Cc1c(C)noc1-c1ccc(O[C@H]2CCC[C@H](C(=O)O)C2)cn1 [Example 60]"
  IC50 / nM: 33
- COMPOUND: "Cc1nc(-c2onc(C)c2CNC(=O)OCC(C)C)ccc1O[C@H]1CCC[C@H](C(=O)O)C1 [Example 39]"
  IC50 / nM: 37
- COMPOUND: "Cc1noc(-c2ccc(O[C@H]3CCC[C@H](C(=O)O)C3)cn2)c1CNC(=O)OCC1CCC1 [Example 7]"
  IC50 / nM: 16
- COMPOUND: "Cc1noc(-c2ccc(O[C@H]3CCC[C@@H](C(=O)O)C3)cc2)c1NC(=O)O[C@H](C)C1CC1 (racemic) [Example 33]"
  IC50 / nM: 84
- COMPOUND: "Cc1noc(-c2ccc(O[C@H]3CCC[C@H](C(=O)O)C3)cn2)c1CNC(=O)OCCC(C)(C)C [Example 6]"
  IC50 / nM: 7
- COMPOUND: "Cc1noc(-c2ccc(O[C@H]3CCC[C@H](C(=O)O)C3)cc2)c1CNC(=O)OCc1ccc(Cl)cc1 [Example 12]"
  IC50 / nM: 2.77

* * *

TARGET_DESC: human LPA1 (Homo sapiens, UniProt Q92633)
Construct: expressed in transfected cells; host or cells: Chinese hamster ovary (CHO) cells
Sequence (Q92633 whole entry): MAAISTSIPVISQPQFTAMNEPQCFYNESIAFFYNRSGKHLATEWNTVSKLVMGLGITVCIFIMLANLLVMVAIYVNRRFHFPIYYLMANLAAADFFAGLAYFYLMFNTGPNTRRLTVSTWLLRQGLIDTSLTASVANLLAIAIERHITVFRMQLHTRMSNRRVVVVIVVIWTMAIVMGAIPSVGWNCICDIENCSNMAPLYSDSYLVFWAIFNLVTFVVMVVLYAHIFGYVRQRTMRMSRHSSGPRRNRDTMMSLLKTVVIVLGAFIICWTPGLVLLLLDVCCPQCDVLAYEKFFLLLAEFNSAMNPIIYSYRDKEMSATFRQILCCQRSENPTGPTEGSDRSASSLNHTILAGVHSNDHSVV
PROTOCOL: LPA1 functional antagonist assay (calcium flux)
Format: cell-based
STATED_CONDITIONS: CHO cells overexpressing human LPA1; inhibition of calcium flux induced by 10 nM LPA; read-out: hLPA1 IC50
Rule: IC50 below 9 nM gives criterion met, anything at or above gives criterion not met.

- COMPOUND: "Cc1noc(-c2ccc(O[C@H]3CCC[C@H](C(=O)O)C3)cn2)c1CNS(=O)(=O)CCc1ccccc1 [Example 53]"
  LABEL_VALUE: "criterion met"
- COMPOUND: "Cc1noc(-c2ccc(O[C@H]3CCC[C@H](C(=O)O)C3)cn2)c1CNC(=O)OCc1cccc(F)c1 [Example 3]"
  LABEL_VALUE: "criterion met"
- COMPOUND: "Cc1noc(-c2ccc(O[C@H]3CCC[C@H](C(=O)O)C3)cn2)c1CNC(=O)OCc1cc(F)cc(F)c1 [Example 37]"
  LABEL_VALUE: "criterion not met"
- COMPOUND: "Cc1nc(-c2onc(C)c2CNS(=O)(=O)Cc2ccccc2)ccc1O[C@H]1CCC[C@H](C(=O)O)C1 [Example 51]"
  LABEL_VALUE: "criterion not met"

From: patent US11447475B2
